Source of measurements: PubChem BioAssay

- Experiment Description: HIF-2a reporter inhibitor retest, confirmation, luminescence, 786-0 RCC cells (AID 651580)
- Condition: HIF-2a luciferase reporter luminescence, overnight, at 18.8 µM, stronger effect = higher value
The list shows a part of the results.
Label scheme for inhibition: lower than 70% is 0.0, 70% and above is 1.0.

COC(=O)CCNc1ccc2c(c1)OCCO2 | 0.0
Cc1cccc(C(=O)Nc2ccc(CC(=O)O)cc2)c1 | 0.0
CCc1ccc(CNC(=O)C2CCN(c3nnc(C)c4c(C)n(-c5ccc(C)cc5)nc34)CC2)cc1 | 0.0

Query string: Say whether COc1ccc(CC(N)c2csc(NC(=O)Nc3ccc(C(C)C)cc3)n2)cc1 (stereo unspecified) shows inhibition of 70% or more.
Result string: 0.0

Query string: Say whether "O=C(O)c1ccc(N/N=C/c2ccc3ncccc3c2)cc1" shows inhibition of 70% or more.
Result string: 0.0

Query string: Say whether "CCOC(=O)C(=Cc1ccccc1)C(=O)c1ccccc1" shows inhibition of 70% or more.
Result string: 1.0
